meta.source: ChEMBL document CHEMBL1128377

Entries and their pKa
# Procedure text: Acid dissociation constant was determined
# Assay type: ADME
# respond with the number and nothing more

Here are 4 compounds together with their reported answers.
CCCCCC/N=c1\ccn(Cc2ccccc2)c2cc(Cl)ccc12    11.5
CCCC/N=c1\ccn(CCCc2ccccc2)c2cc(Cl)ccc12    11.4
CCCCCC/N=c1\ccn(Cc2ccc(Cl)c(Cl)c2)c2cc(Cl)ccc12    11.5
CCCCCCOc1cc[n+](Cc2ccccc2)c2cc(Cl)ccc12    11.2

// next entry
In: Report pKa for "CCCCCCNc1cc[n+](-c2ccccc2)c2c(-c3ccccc3)cccc12" please.
Out: 9.58

###

# Target entity: UniProt P22001
# Procedure text: Concentration inhibiting [125I]ChTX (charybdotoxin) binding to N-type potassium channel.
pIC50: −log10 of the molar value.
Endpoint: pIC50

Here are 2 molecules together with their reported answers.
CNCCC/N=c1\ccn(Cc2cccc(Cl)c2)c2cc(Cl)ccc12    < 4.52
CCCCCCOc1ccc(Cc2ccccc2)c2ccccc12    < 5.30

In: Record "Clc1ccc(/N=c2\ccn(Cc3ccccc3Cl)c3cc(Cl)ccc23)c(Cl)c1" : what is its pIC50 with UniProt P22001?
Out: < 4.52

###

# Target entity: Potassium voltage-gated channel subfamily A member 3 (Homo sapiens, UniProt P22001)
# Sequence (P22001 whole entry): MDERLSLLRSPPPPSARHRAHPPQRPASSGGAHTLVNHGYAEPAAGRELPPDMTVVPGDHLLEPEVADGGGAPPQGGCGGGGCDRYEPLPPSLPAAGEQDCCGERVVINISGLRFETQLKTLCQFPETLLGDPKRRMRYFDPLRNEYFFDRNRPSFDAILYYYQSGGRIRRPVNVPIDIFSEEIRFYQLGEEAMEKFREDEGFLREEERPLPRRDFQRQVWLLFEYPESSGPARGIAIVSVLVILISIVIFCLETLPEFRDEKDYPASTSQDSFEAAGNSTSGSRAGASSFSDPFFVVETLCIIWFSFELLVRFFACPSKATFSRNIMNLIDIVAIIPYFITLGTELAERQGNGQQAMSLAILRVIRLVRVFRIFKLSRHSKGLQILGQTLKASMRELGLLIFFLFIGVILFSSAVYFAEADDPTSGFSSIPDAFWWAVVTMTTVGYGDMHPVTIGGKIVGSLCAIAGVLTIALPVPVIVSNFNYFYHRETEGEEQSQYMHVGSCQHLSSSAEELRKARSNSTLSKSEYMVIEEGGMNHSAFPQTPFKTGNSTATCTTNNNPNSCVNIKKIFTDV
# Procedure text: Inhibition of outward potassium currents (IKn) in human T-lymphocyte N-type potassium channels.
# Format: functional
Endpoint: pIC50
pIC50 is defined as minus the log10 of a concentration measured in mol/L.

Here are 3 compounds together with their reported answers.
CCC/N=c1\ccn(Cc2ccccc2)c2cc(Cl)ccc12    5.50
CCCCCC/N=c1\ccn(Cc2ccc(Cl)c(Cl)c2)c2cc(Cl)ccc12    6.64
CCCCCC/N=c1\ccn(Cc2ccccc2)c2ccccc12    5.98

In: Report pIC50 for "CCCCCC/N=c1\ccn(Cc2ccccc2)c2cc(Cl)ccc12" please.
Out: 6.47

In: Report pIC50 for "CCCCCC/N=c1\ccn(Cc2ccccc2)c2ccc(OC)cc12" please.
Out: 6.57

###

Entries and their IC50
# Target entity: Potassium voltage-gated channel subfamily A member 3 (Homo sapiens)
# Procedure text: Concentration inhibiting [125I]ChTX (charybdotoxin) binding to N-type potassium channel.

Here are 2 molecules together with their reported answers.
N=c1ccn(Cc2ccccc2)c2cc(Cl)ccc12    > 8 µM
O=C(O)CC/N=c1\ccn(Cc2ccccc2Cl)c2cc(Cl)ccc12    > 10 µM

// next entry
In: Report IC50 for "C/N=c1\ccn(Cc2ccccc2)c2cc(Cl)ccc12" please.
Out: > 5 µM
